Assay: Phase 1 single-dose plasma pharmacokinetics in subjects with normal hepatic function, mild or moderate hepatic impairment
Type: in vivo, human
Conditions: human, plasma, po, 200 mg, Mild Hepatic Impairment; 3 h; 200 mg single oral dose; read-out: Plasma concentration, Median
Excerpt: Patients: 27 subjects were enrolled within the following groups based on their Child-Pugh (CP) classification score: • Group 1: Matched-control healthy subjects with normal hepatic function; • Group 2: Subjects with mild hepatic impairment (CP Class A, score of 5 or 6); • Group 3: Subjects with moderate hepatic impairment (CP Class B, score of 7 to 9). A parallel design strategy was adopted for the hepatic impairment groups. […]
Recorded endpoint: concentration at 3 h (ng/mL)
Give the quantity in ng/mL, number only.

Data request: # query: concentration at 3 h of entry N#CC1(c2ccc(NC(=O)c3cccnc3NCc3ccncc3)cc2)CCCC1 [Rivoceranib]
Data returned: 155

* * *

assay: Phase 1 single-dose plasma pharmacokinetics in subjects with normal hepatic function, mild or moderate hepatic impairment; assay type: in vivo, human; conditions: human, plasma, po, 200 mg, Mild Hepatic Impairment; 6 h; 200 mg single oral dose; read-out: Plasma concentration, Geometric Mean
Recorded endpoint: concentration at 6 h (ng/mL)
Give the quantity in ng/mL, number only.

Data request: # query: concentration at 6 h of entry N#CC1(c2ccc(NC(=O)c3cccnc3NCc3ccncc3)cc2)CCCC1
Data returned: 95.4

* * *

assay: Phase 1 single-dose plasma pharmacokinetics in subjects with normal hepatic function, mild or moderate hepatic impairment; assay type: in vivo, human; details: human, plasma, po, 200 mg, Mild Hepatic Impairment; 200 mg single oral dose; read-out: VZ/F, Geometric Mean
Recorded endpoint: Vd/F (L)
Give the quantity in L, number only.

Data request: # query: Vd/F of entry N#CC1(c2ccc(NC(=O)c3cccnc3NCc3ccncc3)cc2)CCCC1
Data returned: 1400

* * *

assay: Phase 1 single-dose plasma pharmacokinetics in subjects with normal hepatic function, mild or moderate hepatic impairment; assay type: in vivo, human; conditions: human, plasma, po, 200 mg, Normal Hepatic Function; 1 h; 200 mg single oral dose; read-out: Plasma concentration, Median
Recorded endpoint: concentration at 1 h (ng/mL)
Give the quantity in ng/mL, number only.

Data request: # query: concentration at 1 h of entry N#CC1(c2ccc(NC(=O)c3cccnc3NCc3ccncc3)cc2)CCCC1 [Rivoceranib]
Data returned: 74.4

* * *

assay: Phase 1 single-dose plasma pharmacokinetics in subjects with normal hepatic function, mild or moderate hepatic impairment; assay type: in vivo, human; conditions: human, plasma, po, 200 mg, Normal Hepatic Function; 12 h; 200 mg single oral dose; read-out: Plasma concentration, Median
Recorded endpoint: concentration at 12 h (ng/mL)
Give the quantity in ng/mL, number only.

Data request: # query: concentration at 12 h of entry N#CC1(c2ccc(NC(=O)c3cccnc3NCc3ccncc3)cc2)CCCC1
Data returned: 61.9

* * *

experiment: Phase 1 single-dose plasma pharmacokinetics in subjects with normal hepatic function, mild or moderate hepatic impairment; type: in vivo, human; conditions: human, plasma, oral, 200 mg, Mild vs Normal: matched Normal hepatic function; paired analysis; read-out: Cmax, Geometric Least Squares Mean, Reference
Recorded endpoint: Cmax (ng/mL)
Give the quantity in ng/mL, number only.

Data request: # query: Cmax of entry N#CC1(c2ccc(NC(=O)c3cccnc3NCc3ccncc3)cc2)CCCC1 [Rivoceranib]
Data returned: 303

* * *

assay: Phase 1 single-dose plasma pharmacokinetics in subjects with normal hepatic function, mild or moderate hepatic impairment; format: in vivo, human; conditions: human, plasma, po, 200 mg, Normal Hepatic Function; 200 mg single oral dose; read-out: AUC0-∞, Median
Recorded endpoint: AUC(0-inf) (ng·h/mL)
Give the quantity in ng·h/mL, number only.

Data request: # query: AUC(0-inf) of entry N#CC1(c2ccc(NC(=O)c3cccnc3NCc3ccncc3)cc2)CCCC1
Data returned: 2880

* * *

assay: Phase 1 single-dose plasma pharmacokinetics in subjects with normal hepatic function, mild or moderate hepatic impairment; type: in vivo, human; conditions: human, plasma, po, 200 mg, Normal Hepatic Function; 2 h; 200 mg single oral dose; read-out: Plasma concentration, Median
Recorded endpoint: concentration at 2 h (ng/mL)
Give the quantity in ng/mL, number only.

Data request: # query: concentration at 2 h of entry N#CC1(c2ccc(NC(=O)c3cccnc3NCc3ccncc3)cc2)CCCC1
Data returned: 236

* * *

test: Phase 1 single-dose plasma pharmacokinetics in subjects with normal hepatic function, mild or moderate hepatic impairment; format: in vivo, human; details: human, plasma, po, 200 mg, Mild Hepatic Impairment; 24 h; 200 mg single oral dose; read-out: Plasma concentration, Arithmetic Mean
Recorded endpoint: concentration at 24 h
Phrase the answer as number then unit, nothing more needed.

Data request: # query: concentration at 24 h of entry N#CC1(c2ccc(NC(=O)c3cccnc3NCc3ccncc3)cc2)CCCC1 [Rivoceranib]
Data returned: 34.5 ng/mL

* * *

assay: Phase 1 single-dose plasma pharmacokinetics in subjects with normal hepatic function, mild or moderate hepatic impairment; type: in vivo, human; conditions: human, plasma, po, 200 mg, Moderate Hepatic Impairment; 24 h; 200 mg single oral dose; read-out: Plasma concentration, Arithmetic Mean
Recorded endpoint: concentration at 24 h (ng/mL)
Give the quantity in ng/mL, number only.

Data request: # query: concentration at 24 h of entry N#CC1(c2ccc(NC(=O)c3cccnc3NCc3ccncc3)cc2)CCCC1
Data returned: 44.3

* * *

experiment: Phase 1 single-dose plasma pharmacokinetics in subjects with normal hepatic function, mild or moderate hepatic impairment; format: in vivo, human; conditions: human, plasma, po, 200 mg, Normal Hepatic Function; 1 h; 200 mg single oral dose; read-out: Plasma concentration, Geometric Mean
Recorded endpoint: concentration at 1 h (ng/mL)
Give the quantity in ng/mL, number only.

Data request: # query: concentration at 1 h of entry N#CC1(c2ccc(NC(=O)c3cccnc3NCc3ccncc3)cc2)CCCC1
Data returned: 92.9

* * *

Assay: Phase 1 single-dose plasma pharmacokinetics in subjects with normal hepatic function, mild or moderate hepatic impairment
Type: in vivo, human
Details: human, plasma, po, 200 mg, Moderate Hepatic Impairment; 0.5 h; 200 mg single oral dose; read-out: Plasma concentration, Arithmetic Mean
From the text: Patients: 27 subjects were enrolled within the following groups based on their Child-Pugh (CP) classification score: • Group 1: Matched-control healthy subjects with normal hepatic function; • Group 2: Subjects with mild hepatic impairment (CP Class A, score of 5 or 6); • Group 3: Subjects with moderate hepatic impairment (CP Class B, score of 7 to 9). A parallel design strategy was adopted for the hepatic impairment groups. […]
Recorded endpoint: concentration at 0.5 h
Phrase the answer as number then unit, nothing more needed.

Data request: # query: concentration at 0.5 h of entry N#CC1(c2ccc(NC(=O)c3cccnc3NCc3ccncc3)cc2)CCCC1
Data returned: 115 ng/mL

* * *

tested on: plasma protein; assay: Phase 1 study: unbound plasma concentration and fraction unbound (protein binding); type: in vivo, human; details: human, plasma, po, 200 mg, Mild Hepatic Impairment; 4 h; 200 mg single oral dose; read-out: Fraction Unbound, Arithmetic Mean
Recorded endpoint: fraction unbound at 4 h
API note: the answer field is a bare number with no unit suffix.

Data request: # query: fraction unbound at 4 h of entry N#CC1(c2ccc(NC(=O)c3cccnc3NCc3ccncc3)cc2)CCCC1 [Rivoceranib]
Data returned: 0.0239

* * *

test: Phase 1 single-dose plasma pharmacokinetics in subjects with normal hepatic function, mild or moderate hepatic impairment; assay type: in vivo, human; conditions: human, plasma, po, 200 mg, Mild Hepatic Impairment; 2 h; 200 mg single oral dose; read-out: Plasma concentration, Median
Recorded endpoint: concentration at 2 h (ng/mL)
Give the quantity in ng/mL, number only.

Data request: # query: concentration at 2 h of entry N#CC1(c2ccc(NC(=O)c3cccnc3NCc3ccncc3)cc2)CCCC1
Data returned: 194

* * *

Assay: Phase 1 single-dose plasma pharmacokinetics in subjects with normal hepatic function, mild or moderate hepatic impairment
Type: in vivo, human
Conditions: human, plasma, oral, 200 mg, Mild vs Normal: matched Normal hepatic function; paired analysis; read-out: AUC0-t, Geometric Least Squares Mean, Reference
Text: Patients: 27 subjects were enrolled within the following groups based on their Child-Pugh (CP) classification score: • Group 1: Matched-control healthy subjects with normal hepatic function; • Group 2: Subjects with mild hepatic impairment (CP Class A, score of 5 or 6); • Group 3: Subjects with moderate hepatic impairment (CP Class B, score of 7 to 9). A parallel design strategy was adopted for the hepatic impairment groups. […]
Recorded endpoint: AUC(0-t)
Phrase the answer as number then unit, nothing more needed.

Data request: # query: AUC(0-t) of entry N#CC1(c2ccc(NC(=O)c3cccnc3NCc3ccncc3)cc2)CCCC1 [Rivoceranib]
Data returned: 2820 ng·h/mL

* * *

experiment: Phase 1 single-dose plasma pharmacokinetics in subjects with normal hepatic function, mild or moderate hepatic impairment; assay type: in vivo, human; settings: human, plasma, po, 200 mg, Moderate Hepatic Impairment; 36 h; 200 mg single oral dose; read-out: Plasma concentration, Median
Recorded endpoint: concentration at 36 h
Phrase the answer as number then unit, nothing more needed.

Data request: # query: concentration at 36 h of entry N#CC1(c2ccc(NC(=O)c3cccnc3NCc3ccncc3)cc2)CCCC1 [Rivoceranib]
Data returned: 24.9 ng/mL
